system: UACC-257 melanoma; test: NCI tumour cell line growth inhibition, 48 h
Where a SMILES comes first, the peptide text is derived from it. [ ]: non-standard residue; d: D form. The star is where a group is joined. Cbz = O=C(OCc1ccccc1)*; Aib = CC(C)(N)C(=O)O; OBn = c1ccc(CO*)cc1
OUTCOME MEASURE: TGI

| MOLECULE | RESULT |
| --- | --- |
| COc1ccc(-c2c(C#N)c(N3CCOCC3)nc3[nH]c(=S)[nH]c(=S)c23)cc1OC | > 100 µM |
| O=C(CCSC1=NCCCN1)c1ccc(F)cc1 | 36.5 µM |
| O=C(NN1C(=O)CS(=O)(=O)C1c1ccc(C(F)(F)F)cc1)c1ccncc1 (configuration not stated) | > 100 µM |
| CSC[C@H](NC(=O)COc1cccc2cnccc12)C(=O)NC(Cc1ccccc1)C(O)C(=O)N1CSC[C@H]1C(=O)NC(C)(C)C (some centres not stated) | > 100 µM |
| C=C(C)CNCCN | > 100 µM |

State recorded TGI for all listed molecules.
1. NNc1ncnc2nc[nH]c12
2. COc1ccc(/C=C\c2cc(OC)c(OC)c(OC)c2)cc1OCC(=O)O
3. CC1=C(C#N)c2nc3ccccc3n2C(=O)C1(C)CCO (configuration not stated)
4. COc1ccc(CNc2c3ccccc3nc3ccccc23)cc1F
5. COc1cc(/C=C2\CCCCC3=C2N=C2SC(C)=CN2C3c2cc(OC)c(OC)c(OC)c2)cc(OC)c1OC (configuration not stated)
6. CCOC(=O)/C(C(C)=O)=C(\OC(C)=O)c1ccncc1C(=O)O

> 100 µM
> 100 µM
> 100 µM
16.7 µM
> 100 µM
> 100 µM

State recorded TGI for all listed molecules.
1. C/C1=C\[C@H](C)C[C@H](C)OC(=O)[C@H](C)NC(=O)[C@@H](Cc2ccc(O)c(Br)c2)N(C)C(=O)[C@H](C)NC(=O)[C@@H](C)C1
2. CCOc1c(OC)cc(-c2nc3n(n2)C(=O)C(CC)S3)cc1OC (configuration not stated)
3. CCCCCCCCSC1=C(Cl)C(=O)C(OC)=C(OC)C1=O
4. COc1cc2c(cc1OCCCN1C(=O)c3cccc4cccc(c34)C1=O)N=C[C@@H]1CCCN1C2=O
5. c1ccc(C(C(=Nc2ccc(Cc3ccc(N=C(C(c4ccccc4)c4ccccc4)N4CC4)cc3)cc2)N2CC2)c2ccccc2)cc1
6. COCOCCC#CCO
7. CCOC(=O)c1c2cccccc-2nc1Nc1cccc2c(C)ccnc12

14.8 µM
> 10 µM
21.4 µM
> 100 µM
25.6 µM
> 100 µM
> 10 µM

State recorded TGI for all listed molecules.
1. O=[N+]([O-])c1cccnc1N=Nc1c(O)[nH]c2ccccc12
2. CCCCOCCOC1=C(Cl)C(=O)c2c(O)ccc(O)c2C1=O

["44.6 µM", "1.15 µM"]

State recorded TGI for all listed molecules.
1. CC(C)(C)OC(=O)NC(CSSCC(NC(=O)OC(C)(C)C)C(=O)O)C(=O)O (configuration not stated)
2. CC(NC(=O)C(C)(C)NC(=O)C(CC(=O)OCc1ccccc1)NC(=O)OCc1ccccc1)C(N)=O (configuration not stated) (Cbz-Asp(OBn)-[Aib]-Ala-NH2; configuration not given here)

["> 100 µM", "> 100 µM"]
